Measured values drawn from patent US12371430B2 for this set.

MEASURED TARGET: ATR/ATRIP (Homo sapiens (Human), UniProt Q13535)
Sequence (Q13535 whole entry): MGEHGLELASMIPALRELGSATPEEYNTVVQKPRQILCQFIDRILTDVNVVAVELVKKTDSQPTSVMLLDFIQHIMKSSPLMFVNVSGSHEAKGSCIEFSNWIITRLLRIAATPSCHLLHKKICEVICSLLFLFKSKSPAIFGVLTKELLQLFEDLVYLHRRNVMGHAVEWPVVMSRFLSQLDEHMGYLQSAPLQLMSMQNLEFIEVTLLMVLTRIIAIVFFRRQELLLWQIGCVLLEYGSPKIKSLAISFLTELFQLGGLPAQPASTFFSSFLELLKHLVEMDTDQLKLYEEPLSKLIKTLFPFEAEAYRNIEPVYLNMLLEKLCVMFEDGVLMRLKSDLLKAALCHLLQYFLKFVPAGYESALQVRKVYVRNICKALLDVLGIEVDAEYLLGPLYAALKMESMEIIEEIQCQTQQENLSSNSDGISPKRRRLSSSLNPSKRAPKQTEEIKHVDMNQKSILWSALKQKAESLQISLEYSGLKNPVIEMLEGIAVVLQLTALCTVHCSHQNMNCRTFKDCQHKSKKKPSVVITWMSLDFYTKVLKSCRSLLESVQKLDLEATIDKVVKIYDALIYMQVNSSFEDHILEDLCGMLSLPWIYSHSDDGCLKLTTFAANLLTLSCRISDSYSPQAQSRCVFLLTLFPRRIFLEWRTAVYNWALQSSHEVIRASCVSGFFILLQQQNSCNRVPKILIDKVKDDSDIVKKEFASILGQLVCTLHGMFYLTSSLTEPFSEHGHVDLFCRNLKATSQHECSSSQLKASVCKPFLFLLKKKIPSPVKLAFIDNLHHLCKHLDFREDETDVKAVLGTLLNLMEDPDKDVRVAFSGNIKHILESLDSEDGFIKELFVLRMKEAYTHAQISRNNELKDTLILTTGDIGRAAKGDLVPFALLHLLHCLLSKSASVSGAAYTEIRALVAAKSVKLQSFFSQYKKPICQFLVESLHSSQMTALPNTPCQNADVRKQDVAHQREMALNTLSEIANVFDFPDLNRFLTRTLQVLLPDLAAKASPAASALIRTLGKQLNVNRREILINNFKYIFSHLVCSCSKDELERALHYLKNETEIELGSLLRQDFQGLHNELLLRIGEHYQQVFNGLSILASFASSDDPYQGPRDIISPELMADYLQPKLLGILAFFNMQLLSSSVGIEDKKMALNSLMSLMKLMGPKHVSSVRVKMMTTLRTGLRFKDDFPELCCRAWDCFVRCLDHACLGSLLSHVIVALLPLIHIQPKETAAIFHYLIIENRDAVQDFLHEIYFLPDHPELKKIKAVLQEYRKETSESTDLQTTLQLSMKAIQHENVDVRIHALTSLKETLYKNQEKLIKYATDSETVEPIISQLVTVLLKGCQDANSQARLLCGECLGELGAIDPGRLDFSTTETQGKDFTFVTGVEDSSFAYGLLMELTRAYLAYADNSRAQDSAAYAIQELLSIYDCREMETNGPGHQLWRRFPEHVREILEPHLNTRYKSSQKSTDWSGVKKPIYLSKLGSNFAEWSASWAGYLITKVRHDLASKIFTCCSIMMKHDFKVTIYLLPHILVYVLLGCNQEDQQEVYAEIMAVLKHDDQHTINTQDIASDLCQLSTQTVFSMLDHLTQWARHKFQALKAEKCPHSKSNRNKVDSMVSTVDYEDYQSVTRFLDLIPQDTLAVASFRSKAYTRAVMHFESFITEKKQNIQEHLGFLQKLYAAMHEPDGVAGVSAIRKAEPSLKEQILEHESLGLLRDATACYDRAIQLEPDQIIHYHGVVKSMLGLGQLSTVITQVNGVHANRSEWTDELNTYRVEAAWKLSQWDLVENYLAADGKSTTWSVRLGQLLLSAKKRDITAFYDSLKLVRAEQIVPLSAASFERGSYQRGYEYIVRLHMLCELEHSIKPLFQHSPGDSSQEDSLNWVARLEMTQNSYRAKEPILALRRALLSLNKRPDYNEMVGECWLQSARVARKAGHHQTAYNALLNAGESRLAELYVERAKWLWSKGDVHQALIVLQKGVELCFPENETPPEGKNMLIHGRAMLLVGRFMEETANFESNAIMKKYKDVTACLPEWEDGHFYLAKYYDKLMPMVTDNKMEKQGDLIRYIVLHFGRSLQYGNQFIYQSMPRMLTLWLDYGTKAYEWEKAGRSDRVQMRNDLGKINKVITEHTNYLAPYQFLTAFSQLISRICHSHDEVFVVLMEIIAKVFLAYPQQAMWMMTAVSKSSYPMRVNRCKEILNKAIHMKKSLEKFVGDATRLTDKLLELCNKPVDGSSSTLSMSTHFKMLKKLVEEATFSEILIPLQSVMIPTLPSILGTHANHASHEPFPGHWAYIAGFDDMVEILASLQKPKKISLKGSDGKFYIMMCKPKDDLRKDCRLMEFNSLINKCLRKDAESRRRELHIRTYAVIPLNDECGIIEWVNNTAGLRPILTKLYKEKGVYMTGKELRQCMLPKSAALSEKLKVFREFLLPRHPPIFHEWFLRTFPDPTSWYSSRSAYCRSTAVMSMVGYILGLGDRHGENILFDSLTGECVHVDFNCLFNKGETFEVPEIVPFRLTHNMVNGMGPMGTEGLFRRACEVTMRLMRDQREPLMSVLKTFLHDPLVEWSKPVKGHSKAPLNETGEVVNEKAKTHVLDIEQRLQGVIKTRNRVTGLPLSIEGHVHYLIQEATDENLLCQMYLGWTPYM
Sequence (Q8WXE1 whole entry partner): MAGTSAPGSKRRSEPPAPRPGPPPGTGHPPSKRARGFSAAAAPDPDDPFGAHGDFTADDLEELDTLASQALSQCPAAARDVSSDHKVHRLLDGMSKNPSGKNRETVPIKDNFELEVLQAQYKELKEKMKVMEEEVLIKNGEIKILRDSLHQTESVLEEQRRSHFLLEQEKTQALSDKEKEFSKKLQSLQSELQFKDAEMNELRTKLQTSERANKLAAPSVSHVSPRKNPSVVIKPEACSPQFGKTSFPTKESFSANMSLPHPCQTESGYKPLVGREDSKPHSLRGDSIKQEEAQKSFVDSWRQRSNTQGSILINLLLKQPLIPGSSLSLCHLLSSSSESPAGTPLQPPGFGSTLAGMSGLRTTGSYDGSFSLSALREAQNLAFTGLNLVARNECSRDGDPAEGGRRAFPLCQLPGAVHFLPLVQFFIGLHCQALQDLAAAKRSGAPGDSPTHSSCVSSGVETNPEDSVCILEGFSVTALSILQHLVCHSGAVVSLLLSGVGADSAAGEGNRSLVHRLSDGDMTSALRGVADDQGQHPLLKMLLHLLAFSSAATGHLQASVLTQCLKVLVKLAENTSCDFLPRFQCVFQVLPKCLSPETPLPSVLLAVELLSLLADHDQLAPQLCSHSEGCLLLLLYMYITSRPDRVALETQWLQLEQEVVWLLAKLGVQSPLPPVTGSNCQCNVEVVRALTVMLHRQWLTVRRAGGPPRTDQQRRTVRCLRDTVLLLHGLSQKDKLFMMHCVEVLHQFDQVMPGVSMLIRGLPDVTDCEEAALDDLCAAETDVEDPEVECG
ASSAY OVERVIEW: ATR/ATRIP kinase assay (TR-FRET, p53 Ser15 phosphorylation)
CONDITION SUMMARY: 0.5 μM ATP, 50 nM p53
A collection of compounds and their measured pIC50
Keep it numeric: pIC50 is minus log10 of the concentration in mol/L.

                                smiles_code                           measured_target  measure  reading
0  C[C@@H]1COCCN1c1ccc2c(n1)c(-c1ccn[nH]1)nn2Cc1ccccc1  ATR/ATRIP (Homo sapiens (Human), UniProt Q13535)    pIC50     7.68
1  Cc1ccc(-c2cc(N3CCOC[C@H]3C)nc3c(-c4cc[nH]n4)nn(C)c23)cn1  ATR/ATRIP (Homo sapiens (Human), UniProt Q13535)    pIC50     8.64

**Q:** So what pIC50 did `Cc1cc(S(C)(=O)=O)ncc1-c1cc(N2CCOC[C@H]2C)nc2c(-c3cc[nH]n3)n(C)nc12` get with ATR/ATRIP (Homo sapiens (Human), UniProt Q13535)?
**A:** 6.29

**Q:** What reported pIC50 corresponds to `C[C@@H]1COCCN1c1cc(-c2ccnn2CCF)c2c(n1)c(-c1cc[nH]n1)nn2C` on ATR/ATRIP (Homo sapiens (Human), UniProt Q13535)?
**A:** 9.22

**Q:** Item: `C[C@@H]1COCCN1c1ccc2c(n1)c(-c1cc[nH]n1)nn2-c1ccc(S(C)(=O)=O)cc1` Test system: ATR/ATRIP (Homo sapiens (Human), UniProt Q13535) Read-out: pIC50 Value: ?
**A:** 7.60

###

Tested on: phosphorylation of Chk1 (Ser 345) in HT29 colon adenocarcinoma cells
ASSAY OVERVIEW: pCHK1 cellular assay
Format: cell-based
CONDITION SUMMARY: Homo sapiens, HT-29, hydroxyurea 3 mM, 4 h
Source text: Chk1 kinase acts downstream of ATR and has a key role in DNA damage checkpoint control. Activation of Chk1 involves phosphorylation of Ser317 and Ser345 (regarded as the preferential target for phosphorylation/activation by ATR) and occurs in response to blocked DNA replication and certain forms of genotoxic stress. […] The nuclear localised pChk1 signal is detected on an ImageXpress Ultra confocal high content reader and reported as % positive cells (nuclei).
pIC50: −log10 of the molar value.
Reported pIC50 by item:

**Q:** # query: pIC50 of entry `C[C@@H]1COCCN1c1cc(C2CC2)c2c(n1)c(-c1ccn[nH]1)nn2C`
**A:** 6.00 to 7.00

**Q:** Please look up its pIC50: `Cc1nc([S@@+](C)[O-])ccc1-c1cc(N2CCOC[C@H]2C)nc2c(-c3cc[nH]n3)nn(C)c12`
**A:** 7.00 to 8.00

**Q:** What measured pIC50 goes with `CC(C)n1cc(-c2cc(N3CCOC[C@H]3C)nc3c(-c4cc[nH]n4)nn(C)c23)cn1` ?
**A:** 6.00 to 7.00

###

Test system: phosphorylation of Chk1 (Ser 345) in HT29 colon adenocarcinoma cells
ASSAY OVERVIEW: pCHK1 cellular assay
Type: cell-based
CONDITION SUMMARY: Homo sapiens, HT-29, hydroxyurea 3 mM, 4 h
MEASURE: IC50

>>> df
                                   compound  measure           reading
0  C[C@@H]1COCCN1c1cc(C2=CCOCC2)c2c(n1)c(-c1cc[nH]n1)nn2C [Compound 54]     IC50      10 to 100 nM
1  Cc1ccc(S(C)(=O)=O)cc1-c1cc(N2CCOC[C@H]2C)nc2c(-c3ccn[nH]3)nn(C)c12 [Compound 75]     IC50    100 to 1000 nM
2  C[C@@H]1COCCN1c1ccc2c(n1)c(-c1cc[nH]n1)nn2-c1cccc(S(C)(=O)=O)c1 [Compound 47]     IC50  1000 to 10000 nM
3  C[C@@H]1COCCN1c1cc(C(N)=O)c2c(n1)c(-c1cc[nH]n1)nn2C [Compound 32]     IC50  1000 to 10000 nM
4  C[C@@H]1COCCN1c1cc(-c2ccc(C(F)(F)F)nc2)c2c(n1)c(-c1cc[nH]n1)nn2C [Compound 65]     IC50    100 to 1000 nM
5  C[C@@H]1COCCN1c1cc(C(=O)N(C)C)c2[nH]nc(-c3cc[nH]n3)c2n1 [Compound 27]     IC50    100 to 1000 nM

**Q:** I'm curious: which IC50 was measured for C[C@@H]1COCCN1c1ccc2c(n1)c(-c1cc[nH]n1)nn2CCc1ccccc1 [Compound 64] tested on phosphorylation of Chk1 (Ser 345) in HT29 colon adenocarcinoma cells?
**A:** 1000 to 10000 nM

**Q:** Provide value of IC50 for this record tested with phosphorylation of Chk1 (Ser 345) in HT29 colon adenocarcinoma cells: C[C@@H]1COCCN1c1cc(-c2ccnc3[nH]ccc23)c2c(n1)c(-c1cc[nH]n1)nn2C [Compound 15]
**A:** 10 to 100 nM

###

Reported values of IC50 for individual entries
Test system: phosphorylation of Chk1 (Ser 345) in HT29 colon adenocarcinoma cells
ASSAY OVERVIEW: pCHK1 cellular assay
Format: cell-based
CONDITION SUMMARY: Homo sapiens, HT-29, hydroxyurea 3 mM, 4 h
From the text: Chk1 kinase acts downstream of ATR and has a key role in DNA damage checkpoint control. Activation of Chk1 involves phosphorylation of Ser317 and Ser345 (regarded as the preferential target for phosphorylation/activation by ATR) and occurs in response to blocked DNA replication and certain forms of genotoxic stress. […] The nuclear localised pChk1 signal is detected on an ImageXpress Ultra confocal high content reader and reported as % positive cells (nuclei).

Worked cases, IC50 given:
                                   molecule         reading
0  C[C@@H]1COCCN1c1ccc2c(n1)c(-c1cc[nH]n1)nn2CC1CC1 [Compound 63]  100 to 1000 nM
1  C[C@@H]1COCCN1c1cc(-c2cccc(C#N)c2)c2c(n1)c(-c1cc[nH]n1)nn2C [Compound 48]    10 to 100 nM
2  C[C@@H]1COCCN1c1cc(-c2ccc(S(C)(=N)=O)cc2)c2c(n1)c(-c1cc[nH]n1)nn2C (some centres unmarked) [Compound 6]  100 to 1000 nM
3  C[C@@H]1COCCN1c1cc([C@@H]2CCCOC2)c2c(n1)c(-c1ccn[nH]1)nn2C [Compound 69]    10 to 100 nM
4  C[C@@H]1COCCN1c1cc(-c2ccnn2C)c2c(n1)c(-c1cc[nH]n1)nn2C [Compound 61]    10 to 100 nM

**Q:** Could you share what IC50 was measured for Cc1nc([S@+](C)[O-])ccc1-c1cc(N2CCOC[C@H]2C)nc2c(-c3cc[nH]n3)nn(C)c12 [Compound 9] , tested on phosphorylation of Chk1 (Ser 345) in HT29 colon adenocarcinoma cells?
**A:** 10 to 100 nM

**Q:** Field: IC50 (phosphorylation of Chk1 (Ser 345) in HT29 colon adenocarcinoma cells). Entry: C[C@@H]1COCCN1c1ccc2c(n1)c(-c1ccn[nH]1)nn2C [Compound 40]
**A:** 100 to 1000 nM

**Q:** # value lookup — system phosphorylation of Chk1 (Ser 345) in HT29 colon adenocarcinoma cells, readout IC50, item C[C@@H]1COCCN1c1cc([C@H]2CCCOC2)c2c(n1)c(-c1ccn[nH]1)nn2C [Compound 68]
**A:** 10 to 100 nM

**Q:** Give phosphorylation of Chk1 (Ser 345) in HT29 colon adenocarcinoma cells IC50 for C[C@@H]1COCCN1c1cc(-c2ccn(CCF)n2)c2c(n1)c(-c1cc[nH]n1)nn2C [Compound 34]
**A:** 10 to 100 nM

**Q:** Any idea what IC50 came out for Cc1ccc(-c2cc(N3CCOC[C@H]3C)nc3c(-c4cc[nH]n4)n(C)nc23)cn1 [Compound 14] on phosphorylation of Chk1 (Ser 345) in HT29 colon adenocarcinoma cells?
**A:** 1000 to 10000 nM

**Q:** Find IC50 (phosphorylation of Chk1 (Ser 345) in HT29 colon adenocarcinoma cells) for the entry C[C@@H]1COCCN1c1ccc2c(n1)c(-c1ccn[nH]1)nn2Cc1ccccc1 [Compound 59]
**A:** 1000 to 10000 nM

**Q:** // map Cc1cc(S(C)(=O)=O)ncc1-c1cc(N2CCOC[C@H]2C)nc2c(-c3cc[nH]n3)nn(C)c12 [Compound 17] to recorded IC50 (system: phosphorylation of Chk1 (Ser 345) in HT29 colon adenocarcinoma cells)
**A:** 10 to 100 nM

**Q:** Hi! What's the reported IC50 for Cc1ccnc(C)c1-c1cc(N2CCOC[C@H]2C)nc2c(-c3cc[nH]n3)nn(C)c12 [Compound 22] on phosphorylation of Chk1 (Ser 345) in HT29 colon adenocarcinoma cells?
**A:** 100 to 1000 nM

**Q:** Query IC50 on phosphorylation of Chk1 (Ser 345) in HT29 colon adenocarcinoma cells for C[C@@H]1COCCN1c1cc(-c2cccnc2C(F)(F)F)c2c(n1)c(-c1cc[nH]n1)nn2C [Compound 66]
**A:** < 10 nM

**Q:** Can you look up IC50 on phosphorylation of Chk1 (Ser 345) in HT29 colon adenocarcinoma cells for Cc1ccc(-c2cc(N3CCOC[C@H]3C)nc3c(-c4cc(C)n[nH]4)n[nH]c23)cn1 [Compound 3] ?
**A:** 10 to 100 nM

**Q:** What value of IC50 on phosphorylation of Chk1 (Ser 345) in HT29 colon adenocarcinoma cells does C[C@@H]1COCCN1c1ccc2[nH]nc(-c3cc[nH]n3)c2n1 [Compound 56] have?
**A:** 1000 to 10000 nM

**Q:** For the record CC(C)n1nc(-c2cc[nH]n2)c2nc(N3CCOC[C@H]3C)ccc21 [Compound 73] , what value of IC50 is listed for phosphorylation of Chk1 (Ser 345) in HT29 colon adenocarcinoma cells?
**A:** 100 to 1000 nM
